test system: UACC-62 melanoma; assay: NCI tumour cell line growth inhibition, 48 h
ENDPOINT NAME: TGI

Please review the entries below; each comes with its answer.
In: Return reported TGI; argument: Cn1c(=O)c(Cc2ccc(F)cc2F)cc2cnc(NC3CCOCC3)nc21
Out: > 25 µM

In: Return reported TGI; argument: N=C(/C=C/c1ccc(-c2cn3cc(/C=C/C(=N)N4CCOCC4)ccc3n2)cc1)N1CCOCC1
Out: > 100 µM

// below: TGI requested for another compound
In: Return reported TGI; argument: O=C1NC(=NCCc2ccccc2Cl)S/C1=C\c1ccc2ncccc2c1
Out: > 25 µM

###

system: SK-MEL-5 melanoma; assay: NCI tumour cell line growth inhibition, 48 h
Measured TGI, listed per entry for reference.

Please review the entries below; each comes with its answer.
In: Return reported TGI; argument: O=c1c2ccccc2nc(-c2ccc(Cl)cc2)n1O
Out: > 100 µM

In: Return reported TGI; argument: NCCOc1ccccn1
Out: > 100 µM

In: Return reported TGI; argument: CC1(C)COC(c2cccc(C3=NC(C)(C)CO3)c2)=N1
Out: > 100 µM

In: Return reported TGI; argument: CC(=O)OC1COC(N2C(=O)C(=O)c3cc(Br)c([N+](=O)[O-])cc32)C(OC(C)=O)C1OC(C)=O (stereo unspecified)
Out: > 100 µM

In: Return reported TGI; argument: Cc1c(Cl)cccc1NC(=O)C(=O)C1C(=O)NC(=O)NC1=O
Out: > 100 µM

In: Return reported TGI; argument: CCN(CC)P1(=S)Oc2ccc3ccccc3c2-c2c(ccc3ccccc23)O1
Out: > 100 µM

In: Return reported TGI; argument: Oc1ccc2ccccc2c1/C=N\Nc1ccccn1
Out: > 50.1 µM

In: Return reported TGI; argument: COc1ccc(NS(=O)C2CCCCC2)cc1 (stereo unspecified)
Out: > 100 µM

In: Return reported TGI; argument: Cn1c(=O)c(Cc2ccc(F)cc2F)cc2cnc(NC3CCOCC3)nc21
Out: > 25 µM

In: Return reported TGI; argument: C#CCNC(Cc1ccccc1)C(=O)O (stereo unspecified)
Out: > 100 µM

// below: TGI requested for another molecule
In: Return reported TGI; argument: Cc1cc2c(=O)cc(-c3ccc(Cl)cc3)oc2c(C(=O)O)c1C
Out: > 100 µM

###

system: SNB-75 CNS; assay: NCI tumour cell line growth inhibition, 48 h
Measured TGI, listed per entry for reference.

Please review the entries below; each comes with its answer.
In: Return reported TGI; argument: CO/N=C1/c2cc(OC)ccc2-c2c(NOC)nc3ccccc3c21
Out: 40.2 µM

In: Return reported TGI; argument: CC(=O)OCc1ccc(-c2nc(C#N)c(N)o2)o1
Out: > 10 µM

In: Return reported TGI; argument: CN(C)CCn1cc(-c2ccc3c(Nc4ccc(CC(=O)Nc5cccc(F)c5)cc4)ncnc3c2)cn1
Out: > 10 µM

Others:
In: Return reported TGI; argument: O=C(O)/C(Cl)=C(/Cl)C(=O)Nc1cccc(Cl)c1
Out: 40.1 µM

###

test system: ACHN renal; assay: NCI tumour cell line growth inhibition, 48 h
Measured TGI, listed per entry for reference.

Please review the entries below; each comes with its answer.
In: Return reported TGI; argument: Cc1ccc(Nc2ncnc3sc(SCc4ccccc4)nc23)cc1
Out: > 100 µM

In: Return reported TGI; argument: Cc1nc2c(=O)[nH]c(=O)nc-2n(CCO)c1C
Out: > 100 µM

// below: TGI requested for another compound
In: Return reported TGI; argument: CC(=O)OC1COC(N2C(=O)C(=O)c3cc(Br)c([N+](=O)[O-])cc32)C(OC(C)=O)C1OC(C)=O (stereo not drawn)
Out: > 100 µM
